// provenance: patent US8895585B2

molecular target: glutathione S-transferase (GST)-fused full-length human Syk protein (Homo sapiens); construct: (GST)-fused full-length human Syk protein; GST (glutathione S-transferase); purchased Carna Biosciences; experiment: Syk enzyme assay; type: biochemical; details: Syk enzyme assay, Test Example 1; read-out: IC50 of Syk-inhibitory activity
pIC50: −log10 of the molar value.
measured-metric: pIC50

# example entries with known answers
molecule	measured-metric	result-value
CNc1ccc(-c2cncc(Nc3nc(N[C@@H]4CCCC[C@@H]4N)c(F)cc3C(N)=O)c2)cc1 (relative stereo) [Example 004-220]	pIC50	> 8.00
CC[C@@H](Nc1nc(Nc2cncc(-c3cccc(OC)c3F)c2)c(C(N)=O)cc1F)[C@H](C)N [Example 006-278]	pIC50	> 8.00
CN(C)C(=O)c1cc2cc(Nc3nc(N[C@@H]4CCCC[C@@H]4N)c(F)cc3C(N)=O)ccc2[nH]1 (relative stereo) [Example 029-016]	pIC50	> 8.00
CC[C@H](N)[C@@H](CC)Nc1nc(Nc2cnc(OC)c(-n3nccn3)c2)c(C(N)=O)cc1F [Example 006-391]	pIC50	7.30 to 8.00

Asked: Can you look up pIC50 on glutathione S-transferase (GST)-fused full-length human Syk protein (Homo sapiens) for Cn1cc(Nc2nc(NC3CCCCC3N)c(F)cc2C(N)=O)ccc1=O (stereo not shown) [Example 002-202] ?
Given back: 6.00 to 7.00

Asked: Can you look up pIC50 on glutathione S-transferase (GST)-fused full-length human Syk protein (Homo sapiens) for CN(C)c1ccc2cc(Nc3nc(N[C@@H]4CCCC[C@@H]4N)c(F)cc3C(N)=O)cnc2c1 [Example 004-126] ?
Given back: 7.30 to 8.00

Asked: Can you look up pIC50 on glutathione S-transferase (GST)-fused full-length human Syk protein (Homo sapiens) for Cn1cnc2cc(Nc3nc(N[C@@H]4CCCC[C@@H]4N)c(F)cc3C(N)=O)cnc21 [Example 004-027] ?
Given back: 7.30 to 8.00
